This listing pairs compounds with measured ED50.
ASSAYED TARGET: Serotonin (5-HT) receptor (Rattus norvegicus) (UniProt P35563+P35365+P32305+P31388+Q9JJ16+P28564+P30994+Q62758+P08909+P14842+P30940+P35364+P19327+P28565)
ASSAY REMARKS: Dose corresponding to half-maximal decrease of 5-HTP formation in the limbic and striatal parts of rat brain
Type: functional, tissue-based

| QUERY SMILES | ED50 |
| --- | --- |
| CCCN(CCC)[C@H]1CCc2cccc(O)c2[C@H]1C | > 0.05 mg/kg |
| CCCN1CCC[C@H]2Cc3cccc(O)c3C[C@@H]21 | > 0.05 mg/kg |
| CCCN(CCC)[C@@H]1Cc2c(O)cccc2C[C@H]1C | > 0.043 mg/kg |
| CCCN(CCC)[C@@H]1C[C@@H]1c1ccccc1O | 0.04 mg/kg |
